Test system: Cricetinae gen. sp.
Protocol description: Percent protection from inactivation of AHAT was determined using glutathione
Type: functional, Cricetulus griseus
Design: concentration or dose not given beside the values

- Structure string: "CC(=O)c1ccc2c(c1)Cc1cc(N(O)C(C)=O)ccc1-2"
  Uom: "%"
  Protection: 26.3
- Structure string: "COc1ccc2c(c1)Cc1cc(N(O)C(C)=O)ccc1-2"
  Uom: "%"
  Protection: 46.1
- Structure string: "CC(=O)N(O)c1ccc2c(c1)Cc1cc(Br)ccc1-2"
  Uom: "%"
  Protection: 34.7
- Structure string: "CC(=O)N(O)c1ccc2c(c1)Cc1cc(C#N)ccc1-2"
  Uom: "%"
  Protection: 30.5
- Structure string: "CCCCOc1ccc2c(c1)Cc1cc(N(O)C(C)=O)ccc1-2"
  Uom: "%"
  Protection: 6
- Structure string: "CC(=O)N(O)c1ccc2c(c1)Cc1ccccc1-2"
  Uom: "%"
  Protection: 15.7
- Structure string: "CC(=O)N(O)c1ccc2c(c1)Cc1cc(F)ccc1-2"
  Uom: "%"
  Protection: 55.2

* * *

System: Hamster
Protocol description: Activity measured as 4-aminoazobenzene (AAB) transacetylation rate with partially purified hamster hepatic enzyme
Format: ADME
Run parameters: cricetinae, in vitro

- Structure string: "CCOc1ccc2c(c1)Cc1cc(N(O)C(C)=O)ccc1-2"
  Rate [nmol/mg/min]: 9.6
- Structure string: "CC(=O)N(O)c1ccc2c(c1)Cc1cc(F)ccc1-2"
  Rate [nmol/mg/min]: 26.8
- Structure string: "COc1ccc2c(c1)Cc1cc(N(O)C(C)=O)ccc1-2"
  Rate [nmol/mg/min]: 10.9
- Structure string: "CC(=O)N(O)c1ccc2c(c1)Cc1cc(I)ccc1-2"
  Rate [nmol/mg/min]: 5.3
- Structure string: "CC(=O)N(O)c1ccc2c(c1)Cc1ccccc1-2"
  Rate [nmol/mg/min]: 20.9
- Structure string: "CC(=O)N(O)c1ccc2c(c1)Cc1cc(Cl)ccc1-2"
  Rate [nmol/mg/min]: 20.1
- Structure string: "CC(=O)N(O)c1ccc2c(c1)Cc1cc(Br)ccc1-2"
  Rate [nmol/mg/min]: 20.5
- Structure string: "CCCCOc1ccc2c(c1)Cc1cc(N(O)C(C)=O)ccc1-2"
  Rate [nmol/mg/min]: 4.6
- Structure string: "CC(=O)c1ccc2c(c1)Cc1cc(N(O)C(C)=O)ccc1-2"
  Rate [nmol/mg/min]: 13.7
- Structure string: "CC(=O)N(O)c1ccc2c(c1)Cc1cc(C#N)ccc1-2"
  Rate [nmol/mg/min]: 16.5

* * *

Recorded kinact, one value per entry.
Protocol description: Apparent inactivation rate constant was evaluated

- Structure string: "CC(=O)N(O)c1ccc2c(c1)Cc1cc(F)ccc1-2"
  kinact: "2.59 min⁻¹"
- Structure string: "CC(=O)N(O)c1ccc2c(c1)Cc1cc(C#N)ccc1-2"
  kinact: "0.09 min⁻¹"
- Structure string: "CC(=O)N(O)c1ccc2c(c1)Cc1ccccc1-2"
  kinact: "1.95 min⁻¹"
- Structure string: "CC(=O)N(O)c1ccc2c(c1)Cc1cc(Cl)ccc1-2"
  kinact: "0.76 min⁻¹"
- Structure string: "COc1ccc2c(c1)Cc1cc(N(O)C(C)=O)ccc1-2"
  kinact: "3.73 min⁻¹"
- Structure string: "CCCCOc1ccc2c(c1)Cc1cc(N(O)C(C)=O)ccc1-2"
  kinact: "0.58 min⁻¹"
- Structure string: "CC(=O)N(O)c1ccc2c(c1)Cc1cc(Br)ccc1-2"
  kinact: "0.22 min⁻¹"
- Structure string: "CC(=O)c1ccc2c(c1)Cc1cc(N(O)C(C)=O)ccc1-2"
  kinact: "0.25 min⁻¹"
- Structure string: "CC(=O)N(O)c1ccc2c(c1)Cc1cc(I)ccc1-2"
  kinact: "0.07 min⁻¹"
- Structure string: "CCOc1ccc2c(c1)Cc1cc(N(O)C(C)=O)ccc1-2"
  kinact: "0.67 min⁻¹"

* * *

Protocol description: Ratio of apparent inactivation rate constant to apparent dissociation (binding) rate constant was determined
Property label: kinact/KI (M⁻¹ s⁻¹)

- Structure string: "COc1ccc2c(c1)Cc1cc(N(O)C(C)=O)ccc1-2"
  Uom: "M⁻¹ s⁻¹"
  Observed result: 1770
- Structure string: "CC(=O)N(O)c1ccc2c(c1)Cc1cc(F)ccc1-2"
  Uom: "M⁻¹ s⁻¹"
  Observed result: 334
- Structure string: "CC(=O)N(O)c1ccc2c(c1)Cc1cc(C#N)ccc1-2"
  Uom: "M⁻¹ s⁻¹"
  Observed result: 37.5
- Structure string: "CC(=O)N(O)c1ccc2c(c1)Cc1ccccc1-2"
  Uom: "M⁻¹ s⁻¹"
  Observed result: 360
- Structure string: "CCCCOc1ccc2c(c1)Cc1cc(N(O)C(C)=O)ccc1-2"
  Uom: "M⁻¹ s⁻¹"
  Observed result: 1690
- Structure string: "CCOc1ccc2c(c1)Cc1cc(N(O)C(C)=O)ccc1-2"
  Uom: "M⁻¹ s⁻¹"
  Observed result: 2940
- Structure string: "CC(=O)N(O)c1ccc2c(c1)Cc1cc(I)ccc1-2"
  Uom: "M⁻¹ s⁻¹"
  Observed result: 2900
- Structure string: "CC(=O)c1ccc2c(c1)Cc1cc(N(O)C(C)=O)ccc1-2"
  Uom: "M⁻¹ s⁻¹"
  Observed result: 10400
- Structure string: "CC(=O)N(O)c1ccc2c(c1)Cc1cc(Cl)ccc1-2"
  Uom: "M⁻¹ s⁻¹"
  Observed result: 258
- Structure string: "CC(=O)N(O)c1ccc2c(c1)Cc1cc(Br)ccc1-2"
  Uom: "M⁻¹ s⁻¹"
  Observed result: 620

* * *

Protocol description: Apparent dissociation (binding) rate constant was evaluated
Format: ADME

- Structure string: "CCOc1ccc2c(c1)Cc1cc(N(O)C(C)=O)ccc1-2"
  Kd: "3.8 µM"
- Structure string: "CC(=O)N(O)c1ccc2c(c1)Cc1ccccc1-2"
  Kd: "88.8 µM"
- Structure string: "CC(=O)N(O)c1ccc2c(c1)Cc1cc(Cl)ccc1-2"
  Kd: "48.8 µM"
- Structure string: "COc1ccc2c(c1)Cc1cc(N(O)C(C)=O)ccc1-2"
  Kd: "35.1 µM"
- Structure string: "CC(=O)c1ccc2c(c1)Cc1cc(N(O)C(C)=O)ccc1-2"
  Kd: "0.4 µM"
- Structure string: "CCCCOc1ccc2c(c1)Cc1cc(N(O)C(C)=O)ccc1-2"
  Kd: "5.7 µM"
- Structure string: "CC(=O)N(O)c1ccc2c(c1)Cc1cc(Br)ccc1-2"
  Kd: "5.9 µM"
- Structure string: "CC(=O)N(O)c1ccc2c(c1)Cc1cc(C#N)ccc1-2"
  Kd: "40 µM"
- Structure string: "CC(=O)N(O)c1ccc2c(c1)Cc1cc(F)ccc1-2"
  Kd: "129 µM"
- Structure string: "CC(=O)N(O)c1ccc2c(c1)Cc1cc(I)ccc1-2"
  Kd: "0.4 µM"

* * *

Recorded Protection, one value per entry.
Tested on: Cricetinae gen. sp.
Protocol description: Percent protection from inactivation of AHAT was determined using t-RNA
Format: functional, Cricetulus griseus
Parameters: concentration or dose not given beside the values
Property label: Protection (%)

- Structure string: "CC(=O)c1ccc2c(c1)Cc1cc(N(O)C(C)=O)ccc1-2"
  Property label: "Protection"
  Uom: "%"
  Observed result: 8.3
- Structure string: "CC(=O)N(O)c1ccc2c(c1)Cc1cc(F)ccc1-2"
  Property label: "Protection"
  Uom: "%"
  Observed result: 17.6
- Structure string: "CC(=O)N(O)c1ccc2c(c1)Cc1ccccc1-2"
  Property label: "Protection"
  Uom: "%"
  Observed result: 1.9
- Structure string: "CCCCOc1ccc2c(c1)Cc1cc(N(O)C(C)=O)ccc1-2"
  Property label: "Protection"
  Uom: "%"
  Observed result: 18
- Structure string: "CC(=O)N(O)c1ccc2c(c1)Cc1cc(C#N)ccc1-2"
  Property label: "Protection"
  Uom: "%"
  Observed result: 2.9
- Structure string: "COc1ccc2c(c1)Cc1cc(N(O)C(C)=O)ccc1-2"
  Property label: "Protection"
  Uom: "%"
  Observed result: 32.2
- Structure string: "CC(=O)N(O)c1ccc2c(c1)Cc1cc(Br)ccc1-2"
  Property label: "Protection"
  Uom: "%"
  Observed result: 0

# credit: ChEMBL document CHEMBL1123063
